Molecular target: PDE5 enzyme (Homo sapiens, UniProt O76074)
Construct: The PDE5 enzyme isolated from human platelets; from tissue; host or cells: human platelets
Test: Method 1: Human Platelet PDE5 Enzyme Inhibition Scintillation Proximity Assay
Format: biochemical
Conditions: METHOD 1: PDE5 IC50, Table B, WO2004096810 examples
Experimental: Method 1: Human Platelet PDE5 Enzyme Inhibition Scintillation Proximity Assay An in vitro assay can be used to evaluate the inhibition of PDE5 enzyme activity by a test compound. […] Stocks of standard and test compounds are prepared at 5 mM in 100% DMSO. […] The beads are allowed to settle for 30 minutes and then read on a NXT TopCount scintillation counter. Data are analyzed with a curve fitting application for plate-based screening. […]
Recorded IC50 for the following molecules
Write the number in nM without appending the unit.

1. CCOCCn1nc(C)c2nc(N3CCN[C@@H](C)C3)nc(Nc3ccncn3)c21 [WO2004096810 Example 12]    1.74
2. CCCc1nn(C)c2c(Nc3cc(OC)ncn3)nc(N3CCNCC3)nc12 [WO2004096810 Example 83]    134
3. CCCc1nn(C)c2c(NC3CCC(OC)CC3)nc(N3CCNCC3)nc12 (stereo not shown) [WO2004096810 Example 127]    7580

Could you now consider this next molecule?
Entry CCOCCn1nc(C)c2nc(N(C)[C@@H]3CCN(C)C3)nc(Nc3ccncn3)c21 [WO2004096810 Example 157] , tested on PDE5 enzyme (Homo sapiens, UniProt O76074), has a reported IC50 of 16.7

Each recorded value in this set is attributed to patent US8518956B2.
